- System: PC-3 prostate
- measurement-notes: NCI tumour cell line growth inhibition, 48 h; in the data active = GI50 below about 0.43 µM; inactive = the rest
Outcomes: 1 (yes) = active, 0 (no) = inactive

# molecule, label
data = [
    ("CC(=O)OC1C2(CC3N4C(=O)C5(CO)SSC4(CC31O)C(=O)N5C)OC(C)C(C)(C)C2=O (configuration not stated)", "1 (yes)"),
    ("Cc1cn2c(/C=N/N/C(N)=N\\N)c(-c3ccc(Cl)c([N+](=O)[O-])c3)nc2s1", "0 (no)"),
    ("CCc1c2c(nc3cccc(N)c13)-c1cc3c(c(=O)n1C2)COC(=O)[C@]3(O)CC", "1 (yes)"),
    ("CC(C)OC(=O)c1ccc2[nH]c(O)c(C(=Nc3ccc(N(C)C(=O)CN4CCN(C)CC4)cc3)c3ccccc3)c2c1", "0 (no)"),
    ("C/C1=C\\CC[C@@](C)(O)[C@@H]2CC3[C@@H](OC(=O)C34CC4)[C@@H](O2)[C@H](C)CCC1 (some centres not stated)", "0 (no)"),
    ("CCOC(=O)c1cnn(-c2ccnc3c(C(F)(F)F)cccc23)c1N", "0 (no)"),
    ("CCc1c[nH]c2ncnc(N3CC[C@@](N)(CNC(=O)c4ccc(F)cc4F)C3)c12", "0 (no)"),
]

----------
- Test system: SK-MEL-2 melanoma
- measurement-notes: NCI tumour cell line growth inhibition, 48 h

# molecule, reading-unit, value-modifier, TGI
measured = [
    ("CC(=O)Oc1ccccc1C(=O)C1c2cccc(O)c2C(=O)c2c(O)cccc21", "µM", "=", 2.9),
    ("CCCCCCCC(=O)N/N=C/c1ccc(Sc2nccn2C)c([N+](=O)[O-])c1", "µM", "=", 31),
    ("CSCC[C@H]1C(=O)N=C(N)N1C(=O)OCc1ccccc1", "µM", ">", 100),
    ("COc1cc(/C=C/C2=NN(c3cccc(S(=O)(=O)O)c3)C3(C2)C(Cl)C(=O)N3c2nc3ccccc3s2)ccc1O (stereo unspecified)", "µM", ">", 100),
    ("O=C1N[C@@H]([C@H](CCCCCO)OC(=O)c2ccccc2)CO1", "µM", ">", 100),
    ("Nc1nc(OCc2ccccc2)nc2[nH]ncc12", "µM", "=", 47.9),
]

----------
- System: SNB-75 CNS
- measurement-notes: NCI tumour cell line growth inhibition, 48 h
measured-attribute: GI50

# compound, measured-attribute, result
rows = [
    ("COc1cc(/C=C(/c2ccccc2)[N+](=O)[O-])c(OC)c2c1OCO2", "GI50", "539 nM"),
    ("Oc1cc(Cl)ccc1Oc1ccc(Cl)cc1Cl", "GI50", "2310 nM"),
    ("COc1ccc(/C=C2\\CCCC3=C2NC(C)=NC3c2ccc(OC)c(OC)c2)cc1OC (stereo not drawn)", "GI50", "32000 nM"),
]

----------
- Test system: IGROV1 ovarian
- measurement-notes: NCI tumour cell line growth inhibition, 48 h
measured-attribute: TGI

# molecule, test-target, result
rows = [
    ("C/C1=C\\CC[C@@](C)(O)[C@@H]2CC3[C@@H](OC(=O)C34CC4)[C@@H](O2)[C@H](C)CCC1 (some centres not stated)", "IGROV1 ovarian", "24.1 µM"),
    ("CC1=CC(=O)C(C(C)=Nc2ccccc2Cl)C(=O)O1 (configuration not stated)", "IGROV1 ovarian", "> 100 µM"),
    ("O=C(CC(C(=O)c1cccs1)c1ccsc1)c1ccsc1 (configuration not stated)", "IGROV1 ovarian", "> 100 µM"),
    ("NC1=Nc2ccccc2Sc2nnc(-c3ccc(Cl)cc3)n21", "IGROV1 ovarian", "> 100 µM"),
    ("C[C@H](CS(C)(=O)=O)Nc1ncc2cc(Oc3ccc(F)cc3F)c(=O)n(C)c2n1", "IGROV1 ovarian", "> 25 µM"),
    ("O=C1CC2C(=O)N(Cc3ccccc3)C1C(S(=O)(=O)c1ccccc1)C2S(=O)(=O)c1ccccc1 (configuration not stated)", "IGROV1 ovarian", "36 µM"),
    ("CCCCCCCC(=O)N/N=C/c1ccc(Sc2nccn2C)c([N+](=O)[O-])c1", "IGROV1 ovarian", "24.7 µM"),
    ("COc1ccc2c(C(=O)O)cc3cc(OC)c(OC)cc3c2c1", "IGROV1 ovarian", "> 100 µM"),
    ("c1ccc2c(c1)CCN2CCc1c[nH]c2ccccc12", "IGROV1 ovarian", "> 10 µM"),
    ("CCOC(CCCN1CCC2(CC1)C(=O)N(C)CN2c1ccccc1)(OCC)c1ccc(F)cc1", "IGROV1 ovarian", "31.2 µM"),
    ("CC1=NN(C(=O)c2ccc(Cl)cc2)C(=O)/C1=C/c1cccc([N+](=O)[O-])c1", "IGROV1 ovarian", "> 100 µM"),
    ("Cc1ccc2c(c1)ncn2-c1ncnc2c1CC(C)c1ccccc1N2C (configuration not stated)", "IGROV1 ovarian", "7.68 µM"),
    ("Cc1c(C)c2ccc(OC/C=C3\\CCC(=O)O3)cc2oc1=O", "IGROV1 ovarian", "28.9 µM"),
    ("COc1ccc(COCC(Cn2ccnc2)OCc2ccc(C(=O)O)cc2)cc1 (configuration not stated)", "IGROV1 ovarian", "> 100 µM"),
    ("OC(c1ccccc1)(c1ccccc1)c1cccnc1", "IGROV1 ovarian", "> 100 µM"),
    ("N=c1oc2ccc(Cl)cc2cc1C(=O)Nc1ccccc1", "IGROV1 ovarian", "> 100 µM"),
    ("C[C@H](CSC(=O)c1ccccc1)C(=O)N1c2ccccc2C[C@H]1C(=O)O", "IGROV1 ovarian", "> 100 µM"),
    ("COC1CC(n2cnc3c(N)ncnc32)OC1CO (configuration not stated)", "IGROV1 ovarian", "> 100 µM"),
    ("O=C1C=CC(=O)c2c(O)c(N[C@@H](Cc3ccccc3)C(=O)OCc3ccccc3)c(Cl)c(O)c21", "IGROV1 ovarian", "> 10 µM"),
    ("CC[CH2][Pb]([CH2]CC)([CH2]CC)[NH]S(=O)(=O)c1ccc(C)cc1", "IGROV1 ovarian", "0.19 µM"),
    ("COc1cc2cc(Oc3ccc(NC(=O)c4ccc(Cl)c(C(F)(F)F)c4)cc3)c(C)nc2cc1OC", "IGROV1 ovarian", "> 100 µM"),
    ("CCSc1nc(COC(=O)NC)c(COC(=O)NC)n1C", "IGROV1 ovarian", "> 93.1 µM"),
]

----------
Listed molecules paired with reported TGI
- System: SF-539 CNS
- measurement-notes: NCI tumour cell line growth inhibition, 48 h
measured-attribute: TGI

# molecule, result
data = [
    ("COc1ccc(/C=C2\\CCCC3=C2NC(C)=NC3c2ccc(OC)c(OC)c2)cc1OC (stereo not given)", "> 100 µM"),
    ("CN1CN(c2ccccc2)C2(CCN(CCCC(=O)c3cccs3)CC2)C1=O", "64 µM"),
    ("COC(=O)c1cc(-c2c[nH]cc2C(=O)OCc2ccccc2)cn1S(=O)(=O)c1ccc(C)cc1", "> 100 µM"),
    ("O=C1C(=O)N(C2C3CC4CC(C3)CC2C4)C(=O)C(=O)C1c1nc2ccccc2o1 (stereo not given)", "> 100 µM"),
    ("CCSc1nc(COC(=O)NC)c(COC(=O)NC)n1C", "> 100 µM"),
    ("CCc1cc2c(cc1CCCC(=O)O)CC1(Cc3ccc(C(=O)O)cc3C1)C2 (stereo not given)", "> 100 µM"),
    ("O=c1[nH]cnc2c(C3OC(CO)C(O)C3O)scc12 (stereo not given)", "> 100 µM"),
    ("C=CCc1ccc(O)c(-c2cc(C3Oc4c(-c5cc(CC=C)ccc5O)cc(O)cc4[C@@H]3CO)ccc2O)c1 (stereo not given in full)", "56.3 µM"),
    ("NC(N)=NC(N)=Nc1c(F)c(F)c(F)c(F)c1F", "> 100 µM"),
    ("NCc1ccc(-n2c(-c3nonc3N)nc3cnccc32)cc1", "> 23.6 µM"),
]

----------
- System: BT-549 breast
- measurement-notes: NCI tumour cell line growth inhibition, 48 h

# compound, reading-unit, value-modifier, TGI
measured = [
    ("C=C[C@]1(C)C=C2C(=O)[C@@]3(O)OC[C@@]4(CCCC(C)(C)C43O)C2(O)C(O)C1 (some centres not stated)", "µM", "=", 13.2),
    ("CCCCCCCC(=O)N/N=C/c1ccc(Sc2nccn2C)c([N+](=O)[O-])c1", "µM", "=", 34.2),
    ("Cc1cc(C)c(C)c(-n2[nH]c(=O)n(C)c2=O)c1C", "µM", ">", 100),
    ("COC1OC(COC(=O)NCCCCC(=O)C(F)(F)F)C(O)C(O)C1O (configuration not stated)", "µM", ">", 100),
    ("CC(=O)Nc1ccc(N2C(=O)/C(=C\\c3cccc(Oc4ccccc4)c3)SC2c2ccccc2)cc1 (configuration not stated)", "µM", ">", 100),
    ("NC(N)=NC(N)=Nc1c(F)c(F)c(F)c(F)c1F", "µM", ">", 100),
    ("CC1CC/C(=C\\c2ccc(N(C)C)cc2)C(=O)/C1=C/c1ccc(N(C)C)cc1 (configuration not stated)", "µM", ">", 100),
    ("CCOC(=O)c1c(C)n(Cc2ccc(Cl)cc2Cl)c2c1cc1oc(=O)c(=O)n3c(Cc4ccccc4)nc2c13", "µM", "=", 6.4),
    ("CN(N)/N=N/c1nc[nH]c1C(N)=O", "µM", ">", 100),
    ("CC1CC[C@@]2(OC1)OC1C[C@H]3[C@@H]4CC[C@H]5CC(OC6OC(CO)C(OC7OC(CO)C(O)C(O)C7O)C(O)C6O)CCC5(C)[C@H]4CCC3(C)C1[C@@H]2C (some centres not stated)", "µM", "=", 11),
    ("Cc1c2cnccc2nc2[nH]c3ccncc3c12", "µM", "=", 63.8),
    ("C[C@H](CS(C)(=O)=O)Nc1ncc2cc(Oc3ccc(F)cc3F)c(=O)n(C)c2n1", "µM", ">", 25),
]
